target: T1, HER-2 (erbB-2), human receptor (human, UniProt P04626 23-1255); experiment: saturation binding to HER-2-transfected Cos-7 cells, herstatin ELISA, nonlinear regression (FIG. 5A)
T1 construct: On HER-2-transfected Cos-7 cells or 3T3/HER-2 cells (cell ELISA), or from transfected Cos-7 cell extracts (pull-down)
pKd: −log10 of the molar value.
measured.metric: pKd

binder	readout.number
RBD Int8 polypeptide (intron 8-encoded receptor binding domain of herstatin, expressed as a bacterial peptide) (Purified from BL-21 bacteria; also called Int8 RBD polypeptide; Int8 peptide; not shown: pET 30 vector-encoded tags (His tag used for nickel purification, S-protein tag used for immobilisation)) GTHSLPPRPAAVPVPLRMQPGPAHPVLSFLRPSWDLVSAFYSLPLAPLSPTSVPISPVSVGRGPDPDAHVAVDLSRYEG	7.30

Value source: patent US20050272637A1
